- System: SNB-78
- Experiment Summary: NCI tumour cell line growth inhibition, 48 h
Activity calls are given as the source filed them. Rule as the data show it: active = GI50 up to about 1.1 µM and inactive = higher.
Hi! Could you answer with just one of these? 1 (yes) for active, 0 (no) for inactive

N#CCCN(CCC#N)c1ccc(/C=N\c2nc(-c3ccccc3)cs2)cc1; 0 (no)
CCOC(=O)NNC(=O)NC12CC3CC(CC(C3)C1)C2; 0 (no)
COc1ccc(NC(=O)c2oc3cc(O)ccc3c(=O)c2C)c([N+](=O)[O-])c1; 0 (no)

Given "C/C(=N\NC(=S)N1CCCCCC1)c1nccnc1C" , state the outcome it received in this test.
1 (yes)

Entry to check: "CN(C)C(=S)/N=c1\ssc(=S)n1C"
0 (no)

Entry to check: CCC1(O)C(=O)OCc2c1cc1n(c2=O)Cc2cc3c(N)cccc3nc2-1 (configuration not stated)
1 (yes)

Entry to check: N#CC(C(=N/NC(N)=S)/C(=N\NC(N)=S)C(C#N)c1ccccc1)c1ccccc1 (configuration not stated)
0 (no)

Entry to check: CC(=O)Nc1ccc(C2[C@H]3C(=O)N(c4ccc(Cc5ccc(N6C(=O)[C@@H]7ON(c8ccccc8)C(c8ccc(NC(C)=O)cc8)[C@@H]7C6=O)cc5)cc4)C(=O)[C@H]3ON2c2ccccc2)cc1 (some centres not stated)
0 (no)

Entry to check: "COc1ccc(N2C(=O)/C(=C/c3ccc(N(CCC#N)CCC#N)cc3C)N=C2c2cc([N+](=O)[O-])ccc2Cl)cc1"
0 (no)

Entry to check: "N#C/N=N/c1cc(Cl)c(/N=N/C#N)cc1Cl"
0 (no)

Entry to check: "CN(C)CCNC(=O)c1cccc2ccc(-c3ccc(F)cc3)nc12"
0 (no)

Entry to check: O=c1[nH]c2cc([N+](=O)[O-])ccc2nc1/C(=N/Nc1ccccc1)C(O)c1ccccc1Cl (configuration not stated)
0 (no)
